Tested on: N. ASTEROIDES ATCC 9970
Assay: In vitro assay of antibacterial activity (agar dilution MIC)
Assay type: cell-based
Conditions: BHI agar, 35-37 °C for 20 to 24 hours, unit assumed
Procedure: Representative compounds of the present invention were assayed in vitro for antibacterial activity as follows: Twelve petri dishes containing successive aqueous dilutions of the test compound mixed with 10 mL of sterilized Brain Heart Infusion (BHI) agar (Difco 0418-01-5) were prepared. Each plate was inoculated with 1:100 (or 1:10 for slow-growing strains, such as Micrococcus and Streptococcus) dilutions of up to 32 different microorganisms, using a Steers replicator block. […]
OBSERVABLE: Antibacterial Activity (MIC's) (µg/mL)
Write it as a number; the unit µg/mL goes unstated.

Measured Antibacterial Activity (MIC's), CC[C@H]1OC(=O)[C@H](C)C(=O)[C@H](C)[C@@H](O[C@@H]2O[C@H](C)C[C@H](N(C)C)[C@H]2O)[C@](C)(OC)C[C@@H](C)C2=Nc3ccccc3N3C(=O)O[C@@]1(C)[C@H]3[C@H]2C : 0.39

CC[C@H]1OC(=O)[C@H](C)C(=O)[C@H](C)[C@@H](O[C@@H]2O[C@H](C)C[C@H](N(C)C)[C@H]2O)[C@](C)(OC)C[C@@H](C)C2=Nc3cccnc3N3C(=O)O[C@@]1(C)[C@H]3[C@H]2C yielded Antibacterial Activity (MIC's) of 0.1

The reported value for CC[C@H]1OC(=O)[C@H](C)C(=O)[C@H](C)[C@@H](O[C@@H]2O[C@H](C)C[C@H](N(C)C)[C@H]2O)[C@](C)(OC)C[C@@H](C)C2=Nc3cc(C)ccc3N3C(=O)O[C@@]1(C)[C@H]3[C@H]2C in terms of Antibacterial Activity (MIC's) is 0.1

# Antibacterial Activity (MIC's) (compound: CC[C@H]1OC(=O)[C@H](C)[C@@H](O[C@H]2C[C@@](C)(OC)[C@@H](O)[C@H](C)O2)[C@H](C)[C@@H](O[C@@H]2O[C@H](C)C[C@H](N(C)C)[C@H]2O)[C@](C)(O)C[C@@H](C)C(=O)[C@H](C)[C@@H](O)[C@]1(C)O [Ery A, Erythromycin A, reference compound] ) is 0.1

Hey, just so you know, these numbers are from patent EP0984975B1.
